biological target: DNA polymerase catalytic subunit (Human cytomegalovirus (strain AD169), UniProt P08546); test: CMV and VZV Polymerase Assays
Sequence (P08546 whole entry): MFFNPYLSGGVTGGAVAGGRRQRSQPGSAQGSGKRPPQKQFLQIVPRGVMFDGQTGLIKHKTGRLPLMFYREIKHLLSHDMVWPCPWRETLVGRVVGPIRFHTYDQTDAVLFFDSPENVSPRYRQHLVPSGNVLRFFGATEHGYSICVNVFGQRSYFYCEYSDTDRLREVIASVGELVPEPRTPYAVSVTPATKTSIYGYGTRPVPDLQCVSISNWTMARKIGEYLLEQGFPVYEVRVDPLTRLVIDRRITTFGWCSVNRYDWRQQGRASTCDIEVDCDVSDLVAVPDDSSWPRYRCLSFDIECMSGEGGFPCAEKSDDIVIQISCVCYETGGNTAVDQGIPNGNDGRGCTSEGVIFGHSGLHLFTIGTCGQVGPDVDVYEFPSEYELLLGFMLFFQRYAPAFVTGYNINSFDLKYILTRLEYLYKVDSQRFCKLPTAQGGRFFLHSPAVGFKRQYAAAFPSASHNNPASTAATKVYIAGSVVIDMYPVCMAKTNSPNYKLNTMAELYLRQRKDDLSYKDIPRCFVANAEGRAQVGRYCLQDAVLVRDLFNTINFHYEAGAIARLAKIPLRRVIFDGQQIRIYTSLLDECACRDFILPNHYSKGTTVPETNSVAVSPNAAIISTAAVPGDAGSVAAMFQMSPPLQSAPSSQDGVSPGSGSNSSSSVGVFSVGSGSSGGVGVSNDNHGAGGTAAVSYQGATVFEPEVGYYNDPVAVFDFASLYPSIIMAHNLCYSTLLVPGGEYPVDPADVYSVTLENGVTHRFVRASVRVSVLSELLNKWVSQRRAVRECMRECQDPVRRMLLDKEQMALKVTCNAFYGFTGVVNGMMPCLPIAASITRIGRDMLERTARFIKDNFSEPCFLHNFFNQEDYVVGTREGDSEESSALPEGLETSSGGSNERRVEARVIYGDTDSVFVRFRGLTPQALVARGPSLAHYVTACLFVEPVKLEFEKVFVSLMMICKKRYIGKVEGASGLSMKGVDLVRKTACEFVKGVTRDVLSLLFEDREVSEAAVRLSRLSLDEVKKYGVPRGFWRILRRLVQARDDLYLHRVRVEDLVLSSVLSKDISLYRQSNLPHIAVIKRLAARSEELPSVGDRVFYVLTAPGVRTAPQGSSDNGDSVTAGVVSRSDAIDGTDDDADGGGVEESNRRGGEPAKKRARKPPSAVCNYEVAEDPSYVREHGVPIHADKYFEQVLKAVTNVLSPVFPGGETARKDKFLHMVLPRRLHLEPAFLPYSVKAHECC
pIC50: −log10 of the molar value.

{"columns": ["mol", "pIC50"],
 "data": [
  ["O=C1OC[C@@H]2C[C@@H](Oc3cc4c(=O)n(Cc5ccc(Cl)cc5)cnc4nc3-c3cnco3)CCN12", 8.96]
]}

---

molecular target: DNA polymerase catalytic subunit (Varicella-zoster virus (strain Dumas)); assay: CMV and VZV Polymerase Assays
Sequence (P09252 whole entry): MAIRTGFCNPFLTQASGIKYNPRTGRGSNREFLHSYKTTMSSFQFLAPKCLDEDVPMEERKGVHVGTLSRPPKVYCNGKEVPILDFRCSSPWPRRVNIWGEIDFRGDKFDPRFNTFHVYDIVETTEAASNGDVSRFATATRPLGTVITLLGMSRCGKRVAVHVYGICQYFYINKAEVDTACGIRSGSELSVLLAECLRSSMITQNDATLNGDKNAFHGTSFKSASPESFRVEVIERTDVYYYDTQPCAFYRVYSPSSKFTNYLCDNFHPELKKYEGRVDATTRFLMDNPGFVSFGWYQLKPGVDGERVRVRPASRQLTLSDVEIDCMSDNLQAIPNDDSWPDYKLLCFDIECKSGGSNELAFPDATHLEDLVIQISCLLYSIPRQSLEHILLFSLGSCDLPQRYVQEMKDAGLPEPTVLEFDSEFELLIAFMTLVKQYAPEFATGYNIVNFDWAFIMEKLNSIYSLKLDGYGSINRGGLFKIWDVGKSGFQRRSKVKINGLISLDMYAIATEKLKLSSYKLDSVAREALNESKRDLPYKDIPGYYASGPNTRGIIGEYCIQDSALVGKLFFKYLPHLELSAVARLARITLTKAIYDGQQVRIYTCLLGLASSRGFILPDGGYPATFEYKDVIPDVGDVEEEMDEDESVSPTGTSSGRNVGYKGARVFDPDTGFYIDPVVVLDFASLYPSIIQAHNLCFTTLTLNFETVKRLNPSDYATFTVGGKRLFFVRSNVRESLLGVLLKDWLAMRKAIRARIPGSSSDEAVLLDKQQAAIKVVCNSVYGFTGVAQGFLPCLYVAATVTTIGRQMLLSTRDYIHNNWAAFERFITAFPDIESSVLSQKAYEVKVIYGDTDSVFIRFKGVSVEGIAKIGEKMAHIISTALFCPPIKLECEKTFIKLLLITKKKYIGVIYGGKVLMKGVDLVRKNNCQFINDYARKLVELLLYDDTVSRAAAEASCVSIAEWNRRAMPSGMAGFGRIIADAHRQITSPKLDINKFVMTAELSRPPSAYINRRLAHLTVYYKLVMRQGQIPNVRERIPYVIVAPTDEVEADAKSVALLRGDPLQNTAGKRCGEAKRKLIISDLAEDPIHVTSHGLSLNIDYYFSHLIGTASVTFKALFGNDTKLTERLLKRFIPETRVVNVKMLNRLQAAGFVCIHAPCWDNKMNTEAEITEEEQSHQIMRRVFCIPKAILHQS

{"columns": ["compound", "IC50 / nM"],
 "data": [
  ["O=C1OC[C@@H]2C[C@@H](Oc3cc4c(=O)n(Cc5ccc(Cl)cc5)cnc4nc3-c3cnco3)CCN12 [US12497405, Compound 37]", 0.22]
]}
